# tgt: HIV-1 92TH021 envelope glycoprotein (Env) on pseudovirus (HIV-1)
# protocol_summary: cell-based or functional assay
Catalogue of binders with associated IC50, pseudovirus neutralization

{"binder": "PGT-130 monoclonal antibody (antibody, V domains shown) VH: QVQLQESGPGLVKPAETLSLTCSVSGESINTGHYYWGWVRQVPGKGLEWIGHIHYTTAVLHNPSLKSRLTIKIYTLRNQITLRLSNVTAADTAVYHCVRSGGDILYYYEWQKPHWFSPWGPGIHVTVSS VL: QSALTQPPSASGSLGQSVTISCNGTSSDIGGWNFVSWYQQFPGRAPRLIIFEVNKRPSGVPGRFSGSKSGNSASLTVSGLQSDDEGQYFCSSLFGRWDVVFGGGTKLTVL", "IC50, pseudovirus neutralization": "0.0082 µg/mL"}
{"binder": "PGT-135 monoclonal antibody (antibody, V domains shown) VH: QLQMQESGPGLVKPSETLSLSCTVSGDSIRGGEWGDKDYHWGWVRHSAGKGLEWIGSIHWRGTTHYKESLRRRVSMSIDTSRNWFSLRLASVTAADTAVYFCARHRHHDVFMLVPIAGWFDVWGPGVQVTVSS VL: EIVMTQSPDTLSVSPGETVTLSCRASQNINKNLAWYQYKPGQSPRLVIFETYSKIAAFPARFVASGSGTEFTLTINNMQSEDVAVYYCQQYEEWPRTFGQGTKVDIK", "IC50, pseudovirus neutralization": "> 10 µg/mL"}

Query binder follows.
Lookup: Field request: IC50, pseudovirus neutralization | item: PGT-123 monoclonal antibody (antibody, V domains shown) VH: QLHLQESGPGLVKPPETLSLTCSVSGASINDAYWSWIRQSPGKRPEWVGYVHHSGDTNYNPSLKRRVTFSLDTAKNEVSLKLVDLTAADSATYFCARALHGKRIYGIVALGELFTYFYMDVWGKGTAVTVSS VL: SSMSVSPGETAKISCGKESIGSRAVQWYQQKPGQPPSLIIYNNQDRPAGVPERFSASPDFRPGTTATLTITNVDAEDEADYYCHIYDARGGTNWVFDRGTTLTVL
Found: > 10 µg/mL
